Tested on: AECO001 (ATCC25922)
test.description: MIC broth microdilution, AECO001
Assay type: cell-based, E. coli
measurement.context: Escherichia coli, ATCC25922, read-out: MIC AECO001
Hi there, I'd appreciate the recorded MIC for every entry that follows.

What does the data say about its MIC? Entry: O=C(N[C@H](C(=O)NO)c1ccccc1)c1ccc(/C=C/C#Cc2ccc(CN3CCOCC3)cc2)cc1 [Example 110-11] < 2 µg/mL

What does the data say about its MIC? Entry: O=C(CNC1CC1)NC[C@H](NC(=O)c1ccc(C#CC#Cc2ccccc2)cc1)C(=O)NO [Example 85-1] < 2 µg/mL

What does the data say about its MIC? Entry: CC(C)CC#CC#Cc1ccc(C(=O)N[C@H](C(=O)NO)[C@@H](C)N)cc1 [Example 91-24] < 2 µg/mL

What does the data say about its MIC? Entry: CC(O)[C@H](NS(=O)(=O)c1ccc(C#Cc2ccc(CN3CCOCC3)cc2)cc1)C(=O)NO (stereo partly shown) [Example 62-7] 16 to 64 µg/mL

What does the data say about its MIC? Entry: C[C@@H](N)[C@H](NC(=O)c1ccc(C#CC#Cc2ccc(CN3CCOCC3)cc2)cc1)C(=O)NO [Example 86-2] < 2 µg/mL

What does the data say about its MIC? Entry: O=C(N[C@H](C(=O)NO)C1CC1)c1ccc(C#Cc2ccc(CN3CCOCC3)cc2)cc1 [Example 68-6] < 2 µg/mL

What does the data say about its MIC? Entry: CC(C)(N)C(NC(=O)c1ccc(C#Cc2ccc(CO)cc2)cc1)C(=O)NO (stereo not shown) [Example 137-5] < 2 µg/mL

What does the data say about its MIC? Entry: C[C@@H](N)[C@H](NC(=O)c1ccc(C#CC#Cc2cccnc2)cc1)C(=O)NO [Example 88-3] < 2 µg/mL

What does the data say about its MIC? Entry: C[C@@H](N)[C@H](NC(=O)c1ccc(C#CC#Cc2ccc(F)cc2)cc1)C(=O)NO [Example 82-12] < 2 µg/mL

What does the data say about its MIC? Entry: C[C@@H](O)[C@H](NC(=O)c1ccc(Sc2ccc(CN3CCOCC3)cc2)cc1)C(=O)NO [Example 47-5] > 64 µg/mL

What does the data say about its MIC? Entry: CC(C)(O)[C@H](NC(=O)c1ccc(C#CC#Cc2cccs2)cc1)C(=O)NO [Example 88-11] < 2 µg/mL

What does the data say about its MIC? Entry: CC(C)(N)[C@H](NC(=O)c1ccc(C#CC#Cc2ccccc2F)cc1)C(=O)NO [Example 82-29] < 2 µg/mL

What does the data say about its MIC? Entry: CC(C)(O)[C@H](NC(=O)c1ccc(C#CC#CCC2CCCC2)cc1)C(=O)NO [Example 91-20] < 2 µg/mL

What does the data say about its MIC? Entry: CC(C)(N)[C@H](NC(=O)c1ccc(/C=C/C#Cc2ccccc2)cc1)C(=O)NO [Example 114-16] < 2 µg/mL

What does the data say about its MIC? Entry: CC(C)(N)[C@@H](NC(=O)c1ccc(C#CC#CC2CC2)cc1)C(=O)NO [Example 91-11] < 2 µg/mL

What does the data say about its MIC? Entry: COCCNCc1ccc(C#Cc2ccc(C(=O)N[C@H](C(=O)NO)[C@@H](C)N)cc2)cc1 [Example 122-1] 2 to 16 µg/mL

* * *

Hi there, I'd appreciate the recorded MIC for every entry that follows.
Tested on: AABA1060 (clinical isolate of Acinetobacter baumannii)
test.description: MIC broth microdilution, AABA1060
Format: cell-based
measurement.context: Acinetobacter baumannii, read-out: MIC AABA1060

What does the data say about its MIC? Entry: "C[C@@H](N)[C@H](NC(=O)c1ccc(/C=C/C#Cc2ccc(OC(F)(F)F)cc2)cc1)C(=O)NO" 2 to 16 µg/mL

What does the data say about its MIC? Entry: "CC(C)C#CC#Cc1ccc(C(=O)N[C@H](C(=O)NO)C(C)(C)N)cc1" < 2 µg/mL

What does the data say about its MIC? Entry: "C[C@@H](N)[C@H](NC(=O)c1ccc(C#CC#Cc2ccc(CNC3CC3)cc2)cc1)C(=O)NO" 2 to 16 µg/mL

What does the data say about its MIC? Entry: "C[C@@H](N)[C@H](NC(=O)c1ccc(C#Cc2ccc(CNC3CCC3)cc2)cc1)C(=O)NO" > 64 µg/mL

What does the data say about its MIC? Entry: "CC(C)(N)[C@H](NC(=O)c1ccc(C#CC#Cc2ccc(O)cc2)cc1)C(=O)NO" < 2 µg/mL

What does the data say about its MIC? Entry: "COc1ccc(C#CC#Cc2ccc(C(=O)N[C@H](C(=O)NO)[C@@H](C)N)cc2)cc1" 2 to 16 µg/mL

What does the data say about its MIC? Entry: "CC(C)(O)[C@H](NC(=O)c1ccc(C#CC#Cc2ccc(CN3CCOCC3)cc2)cc1)C(=O)NO" 2 to 16 µg/mL

What does the data say about its MIC? Entry: "C[C@@H](O)[C@H](NC(=O)c1ccc(C#CC#CC2CC2)cc1)C(=O)NO" 2 to 16 µg/mL

* * *

System: AECO001 (ATCC25922)
test.description: MIC broth microdilution, AECO001
Assay type: cell-based, E. coli
measurement.context: Escherichia coli, ATCC25922, read-out: MIC AECO001
outcome.measure: MIC

What does the data say about its MIC? Entry: "C[C@@H](N)[C@H](NC(=O)c1ccc(C#CC#Cc2ccc(Cl)cc2)cc1)C(=O)NO" < 2 µg/mL

What does the data say about its MIC? Entry: CC(C)C#CC#Cc1ccc(C(=O)NC(C(=O)NO)[C@@H](C)N)cc1 (stereo partly shown) < 2 µg/mL

What does the data say about its MIC? Entry: "CC(C)(O)[C@H](NC(=O)c1ccc(/C=C/C#Cc2ccc(CO)cc2)cc1)C(=O)NO" < 2 µg/mL

What does the data say about its MIC? Entry: "C[C@@H](N)[C@H](NC(=O)c1ccc(C#Cc2ccc(CNCc3nccn3C)cc2)cc1)C(=O)NO" 2 to 16 µg/mL

What does the data say about its MIC? Entry: O=C(NC(C(=O)NO)C1(O)CC1)c1ccc(C#Cc2ccc(CN3CCOCC3)cc2)cc1 (stereo not shown) < 2 µg/mL

What does the data say about its MIC? Entry: "C[C@@H](N)[C@H](NC(=O)c1ccc(C#C/C=C/c2ccccc2)cc1)C(=O)NO" < 2 µg/mL

What does the data say about its MIC? Entry: "C[C@@H](N)[C@H](NC(=O)c1ccc(C#Cc2ccc(CN3CCOCC3)cc2)cc1)C(=O)O" > 64 µg/mL

What does the data say about its MIC? Entry: "C[C@@H](N)[C@H](NC(=O)c1ccc(C#Cc2ccc(CNC3CCC3)cc2)cc1)C(=O)NO" 2 to 16 µg/mL

What does the data say about its MIC? Entry: "C[C@@H](O)[C@H](NC(=O)c1ccc(C#CC#Cc2ccncc2)cc1)C(=O)NO" < 2 µg/mL

What does the data say about its MIC? Entry: "NC[C@H](NC(=O)c1ccc(C#C/C=C/c2ccc(CN3CCOCC3)cc2)cc1)C(=O)NO" < 2 µg/mL

What does the data say about its MIC? Entry: "CC(C)(O)[C@H](NC(=O)c1ccc(C#CC#Cc2cccc(F)c2)cc1)C(=O)NO" < 2 µg/mL

What does the data say about its MIC? Entry: "C[C@@H](O)[C@H](NC(=O)c1ccc(C#Cc2ccc(O)cc2)cc1)C(=O)NO" < 2 µg/mL

What does the data say about its MIC? Entry: "C[C@H](NCC(=O)NC[C@H](NC(=O)c1ccc(C#Cc2ccccc2)cc1)C(=O)NO)c1ccccc1" < 2 µg/mL

What does the data say about its MIC? Entry: "C[C@@H](N)[C@H](NC(=O)c1ccc(C#CC#C[C@H](C)N2CCOCC2)cc1)C(=O)NO" 16 to 64 µg/mL

What does the data say about its MIC? Entry: "CC(C)(O)[C@H](NC(=O)c1ccc(C#CC#CC2CC2)cc1)C(=O)NO" < 2 µg/mL

What does the data say about its MIC? Entry: "CC(C)(O)[C@H](NC(=O)c1ccc(C#CC#Cc2ccc(CO)cc2)cc1)C(=O)NO" < 2 µg/mL

* * *

Test system: ASAU001 (laboratory strain of S. aureus, ATCC29213)
test.description: MIC broth microdilution, ASAU001
Format: cell-based
measurement.context: Staphylococcus aureus, ATCC29213, read-out: MIC ASAU001
outcome.measure: MIC

What does the data say about its MIC? Entry: "O=C(N[C@H](C(=O)NO)c1ccccc1)c1ccc(C#Cc2ccc(CN3CCOCC3)cc2)cc1" > 64 µg/mL

What does the data say about its MIC? Entry: "C[C@@H](N)[C@H](NC(=O)c1ccc(C#CC#Cc2ccc(NS(C)(=O)=O)cc2)cc1)C(=O)NO" 16 to 64 µg/mL

What does the data say about its MIC? Entry: "O=C(CNC1CC1)NC[C@H](NC(=O)c1ccc(C#C/C=C/c2ccc(CO)cc2)cc1)C(=O)NO" > 64 µg/mL

What does the data say about its MIC? Entry: "C[C@@H](N)[C@H](NC(=O)c1ccc(C#C/C=C/c2ccccc2)cc1)C(=O)NO" 16 to 64 µg/mL

What does the data say about its MIC? Entry: "C[C@@H](N)[C@H](NC(=O)c1ccc(C#Cc2ccc(CNS(C)(=O)=O)cc2)cc1)C(=O)NO" > 64 µg/mL

What does the data say about its MIC? Entry: "C[C@@H](N)[C@H](NC(=O)c1ccc(C#Cc2cccnc2)cc1)C(=O)NO" > 64 µg/mL
